From: patent US7554012B2

Biological target: purified PhnO protein (Escherichia coli, UniProt P16691, P2A)
Construct: made in house; host or cells: E. coli JM101 carrying pMON15032 (recA promoter, nalidixic acid induction)
Sequence (P16691 whole entry P2A): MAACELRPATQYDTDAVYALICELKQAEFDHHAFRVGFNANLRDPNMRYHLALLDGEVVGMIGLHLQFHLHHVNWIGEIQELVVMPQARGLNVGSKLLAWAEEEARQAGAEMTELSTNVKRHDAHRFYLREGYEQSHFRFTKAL
Experiment: AMPA transacylase acyl-CoA acyl donor specificity, HPLC
Assay type: biochemical, E. coli
Conditions: acyl donor 1 mM; 1 mM acetyl-CoA = 100% reference
# maps each entry to its % Activity
Numeric answer only, unit % assumed.

Check out these entries, answers already filled in.
molecule=CCC(=O)SCCNC(=O)CCNC(=O)[C@H](O)C(C)(C)COP(=O)(O)OP(=O)(O)OC[C@H]1O[C@@H](n2cnc3c(N)ncnc32)[C@H](O)[C@@H]1OP(=O)(O)O measurement_kind="% Activity" unit=% reported_result=100.00
molecule=CC(C)(COP(=O)(O)OP(=O)(O)OC[C@H]1O[C@@H](n2cnc3c(N)ncnc32)[C@H](O)[C@@H]1OP(=O)(O)O)[C@@H](O)C(=O)NCCC(=O)NCCSC(=O)CCC(=O)O measurement_kind="% Activity" unit=% reported_result=1.56
molecule=C/C=C/C(=O)SCCNC(=O)CCNC(=O)[C@H](O)C(C)(C)COP(=O)(O)OP(=O)(O)OC[C@H]1O[C@@H](n2cnc3c(N)ncnc32)[C@H](O)[C@@H]1OP(=O)(O)O measurement_kind="% Activity" unit=% reported_result=0.00

In the following, a different molecule is considered.
Incoming: Which % Activity value belongs to CC(C(=O)O)C(=O)SCCNC(=O)CCNC(=O)[C@H](O)C(C)(C)COP(=O)(O)OP(=O)(O)OC[C@H]1O[C@@H](n2cnc3c(N)ncnc32)[C@H](O)[C@@H]1OP(=O)(O)O (stereo partly shown) ?
Outgoing: 2.21
